studySystem: human TLR7 (Homo sapiens, UniProt Q9NYK1)
Sequence (Q9NYK1 27-1049): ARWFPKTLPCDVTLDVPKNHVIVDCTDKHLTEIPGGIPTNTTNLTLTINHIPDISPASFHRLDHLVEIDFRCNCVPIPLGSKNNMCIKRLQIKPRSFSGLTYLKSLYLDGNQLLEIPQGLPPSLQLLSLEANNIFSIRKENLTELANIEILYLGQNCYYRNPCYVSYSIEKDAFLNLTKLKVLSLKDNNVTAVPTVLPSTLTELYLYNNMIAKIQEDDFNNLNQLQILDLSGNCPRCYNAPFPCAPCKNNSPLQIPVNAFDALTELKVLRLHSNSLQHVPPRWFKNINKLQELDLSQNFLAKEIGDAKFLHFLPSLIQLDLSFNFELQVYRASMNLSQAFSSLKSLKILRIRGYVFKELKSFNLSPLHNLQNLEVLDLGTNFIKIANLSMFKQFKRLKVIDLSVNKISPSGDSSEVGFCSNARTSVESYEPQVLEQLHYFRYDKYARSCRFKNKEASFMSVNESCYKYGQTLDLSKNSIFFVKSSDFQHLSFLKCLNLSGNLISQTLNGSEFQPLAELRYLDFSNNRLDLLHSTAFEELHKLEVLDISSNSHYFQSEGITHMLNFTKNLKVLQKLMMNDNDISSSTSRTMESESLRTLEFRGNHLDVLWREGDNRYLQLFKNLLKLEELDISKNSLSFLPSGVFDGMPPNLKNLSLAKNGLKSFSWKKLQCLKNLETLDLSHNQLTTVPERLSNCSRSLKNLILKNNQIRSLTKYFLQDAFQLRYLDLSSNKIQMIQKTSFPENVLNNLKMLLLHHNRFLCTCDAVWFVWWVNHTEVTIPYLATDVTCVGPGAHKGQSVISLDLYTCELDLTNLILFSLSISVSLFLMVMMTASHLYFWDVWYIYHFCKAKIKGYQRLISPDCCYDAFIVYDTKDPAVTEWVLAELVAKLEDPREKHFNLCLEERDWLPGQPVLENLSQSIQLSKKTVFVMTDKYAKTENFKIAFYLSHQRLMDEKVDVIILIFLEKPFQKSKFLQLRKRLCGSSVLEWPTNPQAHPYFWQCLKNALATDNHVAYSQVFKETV
assayText: Human TLR7 agonist activity assay (hTLR7 reporter, HEK-Blue TLR7 cells, SEAP)
measurementSetup: HEK-Blue TLR7 cells with SEAP reporter, 18 h treatment; average where assay performed multiple times
For each of the compounds below, state its EC50.
Give bare numbers, in nM.

compound: CCC[C@@H](CCO)Nc1nc(N)nc2cnn(Cc3ccc(CN4C[C@H]5CN(C)C[C@H]5C4)cc3OC)c12
studySystem: human TLR7 (Homo sapiens, UniProt Q9NYK1)
EC50, nM: 7.2
//
compound: CCC[C@@H](CCO)Nc1nc(N)nc2cnn(Cc3ccc(CN4C[C@@H]5C[C@H]4CN5C(C)=O)cc3OC)c12
studySystem: human TLR7 (Homo sapiens, UniProt Q9NYK1)
EC50, nM: 28.8
//
compound: COc1cc(CN2C[C@@H]3C[C@H]2CN3)ccc1Cn1ncc2nc(N)nc(NCc3noc(C)n3)c21
studySystem: human TLR7 (Homo sapiens, UniProt Q9NYK1)
EC50, nM: 323

Please state EC50 for every compound in the list that follows.
1. CCCCNc1nc(N)nc2cnn(Cc3ccc(CN4C[C@H]5CCS(=O)(=O)[C@H]5C4)cc3OC)c12
2. CCCCNc1nc(N)nc2cnn(Cc3ccc(C(=O)N4C[C@H]5C[C@@H]4CN5C)cc3OC)c12

[197, 378]

Please state EC50 for every compound in the list that follows.
1. CCC[C@@H](CCO)Nc1nc(N)nc2cnn(Cc3ccc(C(=O)N4C[C@H]5C[C@@H]4CN5C)cc3OC(F)F)c12
2. CCC[C@@H](CCO)Nc1nc(N)nc2c(C)nn(Cc3ccc(CN4C[C@H]5C[C@@H]4CN5CCO)cc3OC)c12
3. COc1cc(CN2C[C@@H]3C[C@H]2CN3)ccc1Cn1ncc2nc(N)nc(NCc3cc(C)on3)c21

1: 301; 2: 59.9; 3: 234

Please state EC50 for every compound in the list that follows.
1. CCC[C@@H](CCO)Nc1nc(N)nc2cnn(Cc3ccc(CN4C[C@H]5C[C@@H]4CN5C)cc3OC)c12
2. CCC[C@@H](CCO)Nc1nc(N)nc2cnn(Cc3ncc(CN4C[C@H]5C[C@@H]4CN5CCO)cc3OC)c12
3. CCC[C@@H](CCO)Nc1nc(N)nc2cnn(Cc3cnc(CN4C[C@H]5CN(C)C[C@H]5C4)cc3OC)c12
4. COc1cc(CN2C[C@@H]3C[C@H]2CN3C)ccc1Cn1ncc2nc(N)nc(NCc3noc(C)n3)c21
5. CCCCNc1nc(N)nc2cnn(Cc3ccc(CN4C[C@H]5CNC[C@H]5C4)cc3OC)c12 [Compound 136]

1: 22.1; 2: 278; 3: 65.9; 4: 135; 5: 62.2

====

For each of the compounds below, state its EC50.
studySystem: human TLR7 (Homo sapiens)
assayText: Human TLR7 agonist activity assay (hTLR7 reporter, HEK-Blue TLR7 cells, SEAP)
measurementSetup: HEK-Blue TLR7 cells with SEAP reporter, 18 h treatment; average where assay performed multiple times
Numbers only, in nM.

Take a look at these entries with their results.
compound: COc1cc(CN2C[C@H]3C[C@@H]2CN3C)ccc1Cn1ncc2nc(N)nc(N[C@H](CO)CC3CC3)c21 [Compound 137]
studySystem: human TLR7 (Homo sapiens)
unitName: nM
numericResult: 576
//
compound: COc1cc(CN2C[C@@H]3C[C@H]2CO3)ccc1Cn1ncc2nc(N)nc(NCc3cc(C)on3)c21 [Compound 127]
studySystem: human TLR7 (Homo sapiens)
unitName: nM
numericResult: 682
//
compound: CCC[C@@H](CCO)Nc1nc(N)nc2cnn(Cc3ccc(C(=O)N4C[C@H]5CN(C)C[C@H]5C4)cc3OC(F)F)c12 [Compound 124]
studySystem: human TLR7 (Homo sapiens)
unitName: nM
numericResult: 82

Proceeding to the next compound to report its EC50.
Using the record for CCC[C@@H](CCO)Nc1nc(N)nc2cnn(Cc3cnc(CN4C[C@H]5CNC[C@H]5C4)cc3OC)c12 [Compound 133] , state its measured EC50.
89.9

====

studySystem: human TLR7 (Homo sapiens)
assayText: Human TLR7 agonist activity assay (hTLR7 reporter, HEK-Blue TLR7 cells, SEAP)
measurementSetup: HEK-Blue TLR7 cells with SEAP reporter, 18 h treatment; average where assay performed multiple times
Protocol: This procedure describes a method for assaying human TLR7 (hTLR7) agonist activity of the compounds disclosed in this specification. HEK-Blue™ TLR7 cells were added to each well of a 384-well tissue-culture plate (15,000 cells per well) and incubated 16-18 h at 37° C., 5% CO2. […] After 18 h treatment ten microliters of freshly-prepared Quanti-Blue™ reagent (Invivogen) was added to each well, incubated for 30 min (37° C., 5% CO2) and SEAP levels measured using an Envision plate reader (OD=620 nm). […]
parameterMeasured: pEC50
Numbers only, as −log10 of the molar value.

Take a look at these entries with their results.
smilesRepresentation: CCC[C@@H](CCO)Nc1nc(N)nc2cnn(Cc3ccc(C(=O)N4C[C@H]5C[C@@H]4CN5C)cc3OC)c12
studySystem: human TLR7 (Homo sapiens)
pEC50: 6.98
//
smilesRepresentation: COc1cc(CNC23CC(C2)C3)ccc1Cn1ncc2nc(N)nc(NCc3cc(C)on3)c21
studySystem: human TLR7 (Homo sapiens)
pEC50: 6.54
//
smilesRepresentation: CCCCNc1nc(N)nc2cnn(Cc3ccc(C(=O)N4C[C@H]5CN(C)C[C@H]5C4)cc3OC3CC3)c12
studySystem: human TLR7 (Homo sapiens)
pEC50: 6.47

Please state pEC50 for every compound in the list that follows.
1. CCC[C@@H](CCO)Nc1nc(N)nc2cnn(Cc3ccc(CN[C@H]4C[C@H]5COC[C@H]54)cc3OC)c12
2. CCCCNc1nc(N)nc2cnn(Cc3ccc(CN4C[C@H]5CN(C)C[C@H]5C4)cc3OC)c12
3. CCC[C@@H](CCO)Nc1nc(N)nc2cnn(Cc3ncc(CN4C[C@@H]5C[C@H]4CN5CCO)cc3OC)c12
4. CCC[C@@H](CCO)Nc1nc(N)nc2cnn(Cc3cnc(CN4C[C@@H]5C[C@H]4CN5C)cc3OC)c12
5. CCC[C@@H](CCO)Nc1nc(N)nc2cnn(Cc3ccc(C(=O)N4C[C@H]5CNC[C@H]5C4)cc3OC)c12
6. CCCCNc1nc(N)nc2cnn(Cc3ccc(CN4C[C@H]5CN(C)C[C@H]5C4)cc3OC(F)F)c12

1. 8.31
2. 7.56
3. 6.53
4. 6.48
5. 6.76
6. 7.03

Please state pEC50 for every compound in the list that follows.
1. CCCCNc1nc(N)nc2cnn(Cc3ccc(C(=O)N4C[C@H]5CNC[C@H]5C4)cc3OC(F)F)c12
2. CCCCNc1nc(N)nc2c(C)nn(Cc3ccc(C(=O)N4C[C@H]5C[C@@H]4CN5C)cc3OC)c12
3. CCCCNc1nc(N)nc2cnn(Cc3ccc(C(=O)N4C[C@H]5CN(C)C[C@H]5C4)cc3OC)c12

1: 5.65; 2: 6.92; 3: 7.79
